Method summary: Selectivity index, ratio of CC50 for SK6 cells to IC50 for CSFV
Assay type: toxicity
Measurement context: pig, read-out: Ratio CC50/IC50
Quick reference for selectivity ratio among some compounds
Form field (numeric): enter value without unit.

Please review the entries below; each comes with its answer.
1) CC(C)(C)[Si](C)(C)OC[C@H]1O[C@@H](Sc2ccc(NC(=O)[C@H]3O[C@@H](n4ccc(=O)[nH]c4=O)[C@H](O[Si](C)(C)C(C)(C)C)[C@@H]3O[Si](C)(C)C(C)(C)C)cn2)[C@H](OC(=O)c2ccccc2)[C@@H](OC(=O)c2ccccc2)[C@@H]1OC(=O)c1ccccc1 = 1.9
2) CC(=O)OC[C@H]1O[C@@H](Sc2ccc(NC(=O)[C@H]3O[C@@H](n4ccc(=O)[nH]c4=O)[C@H](O)[C@@H]3O)cn2)[C@H](OC(C)=O)[C@@H](OC(C)=O)[C@@H]1OC(C)=O = 1.1

Let us examine a further case.
IN: If you can, please state the reported selectivity ratio value of `CC(=O)OC[C@H]1O[C@@H](Sc2ccc(NC(=O)[C@H]3O[C@@H](n4ccc(=O)[nH]c4=O)[C@H](O[Si](C)(C)C(C)(C)C)[C@@H]3O[Si](C)(C)C(C)(C)C)cn2)[C@H](OC(C)=O)[C@@H](OC(C)=O)[C@H]1OC(C)=O` .
OUT: 25.2

###

CC50 at 48 h for assorted compounds
Method summary: Cytotoxicity against SK6 cells assessed as reduction in cell viability after 2 days by MTS method
Type: cell-based, Sus scrofa
Measurement context: pig, SK6 cells
Value expressed in µM; do not type the unit.

1) CC(C)(C)[Si](C)(C)OC[C@H]1O[C@@H](Sc2ccc(NC(=O)[C@H]3O[C@@H](n4ccc(=O)[nH]c4=O)[C@H](O[Si](C)(C)C(C)(C)C)[C@@H]3O[Si](C)(C)C(C)(C)C)cn2)[C@H](OC(=O)c2ccccc2)[C@@H](OC(=O)c2ccccc2)[C@@H]1OC(=O)c1ccccc1 = 186

Moving on to the next compound.
IN: Please give the measured CC50 at 48 h for this compound: `CC(=O)OC[C@H]1O[C@@H](Sc2ccc(NC(=O)[C@H]3O[C@@H](n4ccc(=O)[nH]c4=O)[C@H](O)[C@@H]3O)cn2)[C@H](OC(C)=O)[C@@H](OC(C)=O)[C@@H]1OC(C)=O`
OUT: 350

###

Method summary: Selectivity index, ratio of CC50 for Huh7.5 cells to IC50 for HCV Jc1/JFH
Type: toxicity
Measurement context: human, read-out: Ratio CC50/IC50
Measured parameter: selectivity ratio
The response must contain the number and no unit.

Consider the worked cases shown below.
1) CC(=O)OC[C@H]1O[C@@H](Sc2ccc(NC(=O)[C@H]3O[C@@H](n4ccc(=O)[nH]c4=O)[C@H](O[Si](C)(C)C(C)(C)C)[C@@H]3O[Si](C)(C)C(C)(C)C)cn2)[C@H](OC(C)=O)[C@@H](OC(C)=O)[C@H]1OC(C)=O = 24.7
2) CC(=O)OC[C@H]1O[C@@H](Sc2ccc(NC(=O)[C@H]3O[C@@H](n4ccc(=O)[nH]c4=O)[C@H](O)[C@@H]3O)cn2)[C@H](OC(C)=O)[C@@H](OC(C)=O)[C@@H]1OC(C)=O = 1.1
3) CC(=O)OC[C@H]1O[C@@H](Sc2ccc(NC(=O)CCC(=O)OC[C@H]3O[C@@H](n4ccc(=O)[nH]c4=O)[C@@H]4OC(C)(C)O[C@@H]43)cn2)[C@H](OC(C)=O)[C@@H](OC(C)=O)[C@@H]1OC(C)=O = 1.4
4) O=C(Nc1ccc(S[C@@H]2O[C@H](CO)[C@@H](O)[C@H](O)[C@H]2O)nc1)[C@H]1O[C@@H](n2ccc(=O)[nH]c2=O)[C@H](O)[C@@H]1O = 1.05
5) CC(=O)OC[C@H]1O[C@@H](Sc2ccc(NC(=O)CCC(=O)OC[C@H]3O[C@@H](n4ccc(=O)[nH]c4=O)[C@@H]4OC(C)(C)O[C@@H]43)cn2)[C@H](OC(C)=O)[C@@H](OC(C)=O)[C@H]1OC(C)=O = 1.6

IN: Quick one: selectivity ratio for `CC(=O)OC[C@H]1O[C@@H](Sc2ccc(NC(=O)[C@H]3O[C@@H](n4ccc(=O)[nH]c4=O)[C@@H]4OC(C)(C)O[C@@H]43)cn2)[C@H](OC(C)=O)[C@@H](OC(C)=O)[C@H]1OC(C)=O` ?
OUT: 1.2
